Values compiled from the supplement of paper PMC12042874.

- assay.notes: amyloid nucleation score (Sup35N fusion, yeast selection) (log enrichment); library NNK2; higher = more nucleation; inactive = no reads after selection;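 note: zero at mode of non-aggregating sequences after 7 days selection at 30°C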
# key: entry, value: amyloid nucleation score
The answer should be a number; do not append a unit.

IIVYFVAFASTGARASK : -0.951

The substance DFSLGLWRVTDIDYVSNVSL showed amyloid nucleation score equal to 0.151

Recorded amyloid nucleation score (substance DSFLLTPDLRDMYEL ): -0.681

Briefly, amyloid nucleation score measured for TGSVDSSSIV : 0.093

Documented amyloid nucleation score of TFMMLMEHGRIYFLWASPVA : -1.68

Sample FTIHWRVGCTQWLEAVIGYM ; amyloid nucleation score observed: 4.07

Given item FVINSCENVARTHRVCQLAM , the value recorded as its amyloid nucleation score is -0.115

The reported amyloid nucleation score of the substance CSRIHIV was -0.255

The value of amyloid nucleation score measured for the substance QNGTERGFFCSKLNRSVTLL turned out to be 0.358

// amyloid nucleation score lookup, substance = LVVLNYGVIHNMNSWPWRWG , result: 9.86

amyloid nucleation score recorded for this substance, RDMGPLVNAPVA , is 0.282

The recorded amyloid nucleation score for entry GIYYTT equals -0.854

So, IVSAKCYRIMVDFYYGYFRL ? Its amyloid nucleation score was 0.01

Just so you know, measured amyloid nucleation score for TMFGPH came out at 0.775

// recorded amyloid nucleation score for YLFSLKQLWF : 5.06

###

- assay.notes: amyloid nucleation score (Sup35N fusion, yeast selection) (log enrichment); library NNK2; higher = more nucleation; inactive = no reads after selection
reported.property: amyloid nucleation score

Reference set (10 entries):
YMYDVRICPFDNWVYRRNEC : -0.107
GFNSNGTFHFSQSVT : -0.001
GRDFCFEVSHYVVMFAFLRD : 0.114
IHLKLRRYLDNYYLNATNCG : -0.509
GGGGCSSDFTQKTPPGQAKA : -0.102
YRRYVLTL : 0.057
MVMGTYVIVRLYKHKNCNAY : -1.36
QVCFHDQ : -0.589
NYIMWLWQQTGWSNGWCALI : 0.312
HSFNYKFLLTI : -0.001

The substance YMLTKYRYS showed amyloid nucleation score equal to 0.734

Entry under test: IDFVVFFT . Its amyloid nucleation score was 1.09

For record YRVSIMYDAWDGLARWFYRR the listed amyloid nucleation score is 0.507

amyloid nucleation score measured on VGTPEHKLFYGLCVALGQFQ = inactive

Sure, the documented amyloid nucleation score for SLDGGPAVVEEATFRGSMAF is -0.567

amyloid nucleation score recorded for this substance, NRFDDVSDDVKTCC , is 5.82

Record summary for MRGTRACIFKRQDTSNTLNE : reported amyloid nucleation score = -1.42

Looking up TIARVIFNPVLCWKVSSRV , I see its amyloid nucleation score listed as 5.52

Sample NHSMRFVLTMPILWKNQKAG ; amyloid nucleation score observed: 0.228

Lab book: amyloid nucleation score of CPRLCLMLLPFKTCMIGTRE noted as 0.57

Consider DGIRVLCLTALPFMWVH . Its measured amyloid nucleation score is inactive

###

- assay.notes: amyloid nucleation score (Sup35N fusion, yeast selection) (log enrichment); library NNK1; higher = more nucleation; inactive = no reads after selection
Note to self: values exactly at 0.1 are label 1. So amyloid nucleation score at or above 0.1 is label 1, below is label 0.

SKILGISKVNCGALL : label 0

Confirm if amyloid nucleation score reported for the substance AALWHFNFINRSFRTVGPAG is 0.1 or above.
label 0

Reported amyloid nucleation score at or above 0.1? FVYCNAAIAISSFGTWEPKG
label 1

# bool: amyloid nucleation score of LGNNPTKHC >= 0.1
label 0

Given the entry RHVVRR , answer whether its amyloid nucleation score meets or surpasses 0.1.
label 1

Evaluate CLNWVCRRFWVSITHFWAWV : amyloid nucleation score at minimum 0.1?
label 0

Hello, I need to know if LDMVANYLYSGSALILYCHL has measured amyloid nucleation score not below 0.1. Thanks!
label 0

// inclusive: amyloid nucleation score at least 0.1? input: LGSAAISLIVLFLG
label 1

Please indicate if the recorded amyloid nucleation score for LPKMWYIDLFVSGVY meets or exceeds 0.1.
label 1

Is reported amyloid nucleation score greater than or equal to 0.1 here: TASIWNSRFFHNAGSLSGPF
label 0

Exam item: decide whether the reported amyloid nucleation score for SVLVLSRYFWNKLMRRWLVA is at least 0.1.
label 0

Does the substance TMRLNQCPLNSFPTLFLYER have recorded amyloid nucleation score that is 0.1 or more?
label 0

Record RSMDRTGSIAGRYCVKKMSS ; criterion: amyloid nucleation score no lower than 0.1. Met?
label 1

Form field: amyloid nucleation score at least 0.1? Entry: CVAWNIDW
label 0

Hello, I need to know if MTSVADECSLYSWAYSWLMS has measured amyloid nucleation score not below 0.1. Thanks!
label 1

Hi, just wondering whether RSRVSIRSHSDRRGRVKRVV shows amyloid nucleation score of 0.1 or higher.
label 1
